Hello, the source for this data is paper PMC11470957, in case you need it.

Tgt: K291A KLHDC2^SBD / BRD3^BD2 (Homo sapiens, UniProt Q15059+Q9Y2U9, K291A)
Sequence (Q9Y2U9 15-361 K291A): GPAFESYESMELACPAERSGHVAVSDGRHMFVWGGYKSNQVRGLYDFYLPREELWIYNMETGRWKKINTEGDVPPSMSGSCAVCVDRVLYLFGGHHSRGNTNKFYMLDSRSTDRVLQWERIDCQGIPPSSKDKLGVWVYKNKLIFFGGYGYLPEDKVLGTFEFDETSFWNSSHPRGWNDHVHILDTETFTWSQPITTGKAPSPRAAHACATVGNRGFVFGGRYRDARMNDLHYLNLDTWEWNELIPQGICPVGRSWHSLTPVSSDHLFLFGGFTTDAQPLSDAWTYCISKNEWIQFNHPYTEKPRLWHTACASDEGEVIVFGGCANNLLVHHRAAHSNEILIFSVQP
Sequence (Q15059 306-416): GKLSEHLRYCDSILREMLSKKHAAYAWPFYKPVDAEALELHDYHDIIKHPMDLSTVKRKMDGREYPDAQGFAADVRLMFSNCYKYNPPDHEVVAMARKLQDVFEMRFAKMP
Method description: ITC, ternary complex K291A KLHDC2^SBD with PROTAC-BRD3^BD2
Readout kind: Kd
Note to self: number, then unit, no commentary.

Problem: Bench note: what Kd did Cc1sc2c(c1C)C(c1ccc(Cl)cc1)=N[C@@H](CC(=O)N1CCN(CCOc3cccc4ccc(-c5nc(CC(=O)NCC(=O)O)cs5)cc34)CC1)c1nnc(C)n1-2 show?
Solution: 25.6 nM

====

Tgt: KLHDC2^SBD (Homo sapiens, UniProt Q9Y2U9)
Sequence (Q9Y2U9 15-361): as the sequence (Q9Y2U9 15-361 K291A) above, with A277K counted along it
Method description: ITC, binary binding of small molecule to KLHDC2^SBD
Test context: cell: ligand; syringe: KLHDC2^SBD
Entries and their measured ITC ΔG follow.

Would you please look over these solved cases?
Cc1sc2c(c1C)C(c1ccc(Cl)cc1)=N[C@@H](CC(=O)N1CCN(CCOc3ccc4ccc(-c5nc(CC(=O)NCC(=O)O)cs5)cc4c3)CC1)c1nnc(C)n1-2: -8.61 +/- 0.04 kcal/mol-1
O=C(O)CNC(=O)Cc1csc(-c2ccc3ccccc3c2)n1: -8.81 +/- 0.07 kcal/mol-1
Cc1sc2c(c1C)C(c1ccc(Cl)cc1)=N[C@@H](CC(=O)N1CCN(CCOc3cccc4ccc(-c5nc(CC(=O)NCC(=O)O)cs5)cc34)CC1)c1nnc(C)n1-2: -9.1 +/- 0.02 kcal/mol-1

Please look at the following compound next.
Problem: Which ITC ΔG value is on record for COCCOc1cccc2ccc(-c3nc(CC(=O)NCC(=O)O)cs3)cc12 ?
Solution: -8.82 +/- 0.04 kcal/mol-1
